Each recorded value in this set is attributed to patent US20260209250A1.

# assayExplanation: Long-term/accelerated stability
# Format: physicochemical
# testSettings: 25° C./60% RH, initial
Parameter: Purity % Initial. Scope: all listed entries.

| molecule | Purity % Initial |
| --- | --- |
| CCc1c(F)ccc2cc(O)cc(-c3nc4c5c(nc(OC[C@@]67CCCN6C[C@H](F)C7)nc5c3F)N3C[C@H]5CC[C@H](N5)[C@H]3CO4)c12 [Crystal form K] | 99.8% |
| CCc1c(F)ccc2cc(O)cc(-c3nc4c5c(nc(OC[C@@]67CCCN6C[C@H](F)C7)nc5c3F)N3C[C@H]5CC[C@H](N5)[C@H]3CO4)c12 [Crystal form I] | 99.6% |
| CCc1c(F)ccc2cc(O)cc(-c3nc4c5c(nc(OC[C@@]67CCCN6C[C@H](F)C7)nc5c3F)N3C[C@H]5CC[C@H](N5)[C@H]3CO4)c12 [Crystal form B] | 99.4% |

* * *

# assayExplanation: Crystal form stability study (influencing factor experiments)
# Format: physicochemical
# testSettings: 75% RH, 10 days, open container

| molecule | Crystal form |
| --- | --- |
| CCc1c(F)ccc2cc(O)cc(-c3nc4c5c(nc(OC[C@@]67CCCN6C[C@H](F)C7)nc5c3F)N3C[C@H]5CC[C@H](N5)[C@H]3CO4)c12 [Crystal form A] | Did not change |
| CCc1c(F)ccc2cc(O)cc(-c3nc4c5c(nc(OC[C@@]67CCCN6C[C@H](F)C7)nc5c3F)N3C[C@H]5CC[C@H](N5)[C@H]3CO4)c12 [Crystal form J] | Did not change |
| CCc1c(F)ccc2cc(O)cc(-c3nc4c5c(nc(OC[C@@]67CCCN6C[C@H](F)C7)nc5c3F)N3C[C@H]5CC[C@H](N5)[C@H]3CO4)c12 [Crystal form B] | Did not change |
| CCc1c(F)ccc2cc(O)cc(-c3nc4c5c(nc(OC[C@@]67CCCN6C[C@H](F)C7)nc5c3F)N3C[C@H]5CC[C@H](N5)[C@H]3CO4)c12 [Crystal form I] | Did not change |
| CCc1c(F)ccc2cc(O)cc(-c3nc4c5c(nc(OC[C@@]67CCCN6C[C@H](F)C7)nc5c3F)N3C[C@H]5CC[C@H](N5)[C@H]3CO4)c12 [Crystal form C] | Did not change |
| CCc1c(F)ccc2cc(O)cc(-c3nc4c5c(nc(OC[C@@]67CCCN6C[C@H](F)C7)nc5c3F)N3C[C@H]5CC[C@H](N5)[C@H]3CO4)c12 [Crystal form K] | Did not change |

* * *

# assayExplanation: Crystal form stability study (influencing factor experiments)
# Assay type: physicochemical
# testSettings: 40° C., 30 days, open container

| molecule | Crystal form |
| --- | --- |
| CCc1c(F)ccc2cc(O)cc(-c3nc4c5c(nc(OC[C@@]67CCCN6C[C@H](F)C7)nc5c3F)N3C[C@H]5CC[C@H](N5)[C@H]3CO4)c12 [Crystal form A] | Did not change |
| CCc1c(F)ccc2cc(O)cc(-c3nc4c5c(nc(OC[C@@]67CCCN6C[C@H](F)C7)nc5c3F)N3C[C@H]5CC[C@H](N5)[C@H]3CO4)c12 [Crystal form C] | Did not change |
| CCc1c(F)ccc2cc(O)cc(-c3nc4c5c(nc(OC[C@@]67CCCN6C[C@H](F)C7)nc5c3F)N3C[C@H]5CC[C@H](N5)[C@H]3CO4)c12 [Crystal form J] | Did not change |

* * *

# assayExplanation: Crystal form stability study (influencing factor experiments)
# Format: physicochemical
# testSettings: light exposure (4500 Lux), 10 days, open container
propertyName: Crystal form

| compound | propertyName | measuredValue |
| --- | --- | --- |
| CCc1c(F)ccc2cc(O)cc(-c3nc4c5c(nc(OC[C@@]67CCCN6C[C@H](F)C7)nc5c3F)N3C[C@H]5CC[C@H](N5)[C@H]3CO4)c12 [Crystal form K] | Crystal form | Did not change |
| CCc1c(F)ccc2cc(O)cc(-c3nc4c5c(nc(OC[C@@]67CCCN6C[C@H](F)C7)nc5c3F)N3C[C@H]5CC[C@H](N5)[C@H]3CO4)c12 [Crystal form A] | Crystal form | Did not change |
| CCc1c(F)ccc2cc(O)cc(-c3nc4c5c(nc(OC[C@@]67CCCN6C[C@H](F)C7)nc5c3F)N3C[C@H]5CC[C@H](N5)[C@H]3CO4)c12 [Crystal form C] | Crystal form | Did not change |
| CCc1c(F)ccc2cc(O)cc(-c3nc4c5c(nc(OC[C@@]67CCCN6C[C@H](F)C7)nc5c3F)N3C[C@H]5CC[C@H](N5)[C@H]3CO4)c12 [Crystal form B] | Crystal form | Did not change |
| CCc1c(F)ccc2cc(O)cc(-c3nc4c5c(nc(OC[C@@]67CCCN6C[C@H](F)C7)nc5c3F)N3C[C@H]5CC[C@H](N5)[C@H]3CO4)c12 [Crystal form I] | Crystal form | Did not change |
| CCc1c(F)ccc2cc(O)cc(-c3nc4c5c(nc(OC[C@@]67CCCN6C[C@H](F)C7)nc5c3F)N3C[C@H]5CC[C@H](N5)[C@H]3CO4)c12 [Crystal form J] | Crystal form | Did not change |

* * *

# assayExplanation: Crystal form stability study (influencing factor experiments)
# Format: physicochemical
# testSettings: 92.5% RH, 30 days, open container

| molecule | Purity % |
| --- | --- |
| CCc1c(F)ccc2cc(O)cc(-c3nc4c5c(nc(OC[C@@]67CCCN6C[C@H](F)C7)nc5c3F)N3C[C@H]5CC[C@H](N5)[C@H]3CO4)c12 [Crystal form A] | 99.3% |
| CCc1c(F)ccc2cc(O)cc(-c3nc4c5c(nc(OC[C@@]67CCCN6C[C@H](F)C7)nc5c3F)N3C[C@H]5CC[C@H](N5)[C@H]3CO4)c12 [Crystal form K] | 99.7% |
| CCc1c(F)ccc2cc(O)cc(-c3nc4c5c(nc(OC[C@@]67CCCN6C[C@H](F)C7)nc5c3F)N3C[C@H]5CC[C@H](N5)[C@H]3CO4)c12 [Crystal form J] | 99.5% |
| CCc1c(F)ccc2cc(O)cc(-c3nc4c5c(nc(OC[C@@]67CCCN6C[C@H](F)C7)nc5c3F)N3C[C@H]5CC[C@H](N5)[C@H]3CO4)c12 [Crystal form B] | 99.4% |
| CCc1c(F)ccc2cc(O)cc(-c3nc4c5c(nc(OC[C@@]67CCCN6C[C@H](F)C7)nc5c3F)N3C[C@H]5CC[C@H](N5)[C@H]3CO4)c12 [Crystal form C] | 99.4% |
| CCc1c(F)ccc2cc(O)cc(-c3nc4c5c(nc(OC[C@@]67CCCN6C[C@H](F)C7)nc5c3F)N3C[C@H]5CC[C@H](N5)[C@H]3CO4)c12 [Crystal form I] | 99.6% |

* * *

# Test system: AGS cells
# assayExplanation: Inhibition of 3D proliferation of AGS cells
# Assay type: cell-based
# testSettings: Homo sapiens, 120 h, CellTiter-Glo 3D
# Description: The inhibitory effect of compound 1-p1 on the KRAS target was evaluated by assessing the inhibitory effect of compound 1-p1 on the 3D proliferation of GP2d and AGS cells. […] The next day, the test compound, serially diluted in a complete culture medium, was added at 10 μL/well. […] The luminescence signal values were obtained using a multi-mode microplate reader (PerkinElmer, ENVISION). The IC50 values for the inhibitory activity of the compound were calculated using Graphpad Prism software.
pIC50: −log10 of the molar value.

| molecule | experimentalTarget | pIC50 |
| --- | --- | --- |
| CCc1c(F)ccc2cc(O)cc(-c3nc4c5c(nc(OC[C@@]67CCCN6C[C@H](F)C7)nc5c3F)N3C[C@H]5CC[C@H](N5)[C@H]3CO4)c12 [Compound 1-p1] | AGS cells | 8.24 |

* * *

# assayExplanation: Crystal form stability study (influencing factor experiments)
# Format: physicochemical
# testSettings: 92.5% RH, 10 days, open container

| compound | Color and state |
| --- | --- |
| CCc1c(F)ccc2cc(O)cc(-c3nc4c5c(nc(OC[C@@]67CCCN6C[C@H](F)C7)nc5c3F)N3C[C@H]5CC[C@H](N5)[C@H]3CO4)c12 [Crystal form C] | Off-white solid |
| CCc1c(F)ccc2cc(O)cc(-c3nc4c5c(nc(OC[C@@]67CCCN6C[C@H](F)C7)nc5c3F)N3C[C@H]5CC[C@H](N5)[C@H]3CO4)c12 [Crystal form J] | Off-white solid |
| CCc1c(F)ccc2cc(O)cc(-c3nc4c5c(nc(OC[C@@]67CCCN6C[C@H](F)C7)nc5c3F)N3C[C@H]5CC[C@H](N5)[C@H]3CO4)c12 [Crystal form K] | Off-white solid |

* * *

# assayExplanation: Crystal form stability study (influencing factor experiments)
# Format: physicochemical
# testSettings: 75% RH, 10 days, open container

| molecule | readingUnit | Purity % |
| --- | --- | --- |
| CCc1c(F)ccc2cc(O)cc(-c3nc4c5c(nc(OC[C@@]67CCCN6C[C@H](F)C7)nc5c3F)N3C[C@H]5CC[C@H](N5)[C@H]3CO4)c12 [Crystal form I] | % | 99.6 |
| CCc1c(F)ccc2cc(O)cc(-c3nc4c5c(nc(OC[C@@]67CCCN6C[C@H](F)C7)nc5c3F)N3C[C@H]5CC[C@H](N5)[C@H]3CO4)c12 [Crystal form K] | % | 99.7 |
| CCc1c(F)ccc2cc(O)cc(-c3nc4c5c(nc(OC[C@@]67CCCN6C[C@H](F)C7)nc5c3F)N3C[C@H]5CC[C@H](N5)[C@H]3CO4)c12 [Crystal form A] | % | 99.3 |
| CCc1c(F)ccc2cc(O)cc(-c3nc4c5c(nc(OC[C@@]67CCCN6C[C@H](F)C7)nc5c3F)N3C[C@H]5CC[C@H](N5)[C@H]3CO4)c12 [Crystal form B] | % | 99.4 |
| CCc1c(F)ccc2cc(O)cc(-c3nc4c5c(nc(OC[C@@]67CCCN6C[C@H](F)C7)nc5c3F)N3C[C@H]5CC[C@H](N5)[C@H]3CO4)c12 [Crystal form C] | % | 99.6 |
| CCc1c(F)ccc2cc(O)cc(-c3nc4c5c(nc(OC[C@@]67CCCN6C[C@H](F)C7)nc5c3F)N3C[C@H]5CC[C@H](N5)[C@H]3CO4)c12 [Crystal form J] | % | 99.6 |
